system: OVCAR-5; test: NCI tumour cell line growth inhibition, 48 h
Calls of active or inactive are those of the source. Cut-off read from the data, not from the text of the source: active = GI50 up to about 1.1 µM and inactive = higher.
PROPERTY LABEL: GI50

> print(dat)
                                   compound          measurement
1  CCOC(=O)c1c(SCCN2CCCCC2)n(-c2ccccc2)c(=S)n(-c2ccccc2)c1=O  > 100 µM (inactive)
2  COC1OC2COC1(OCc1ccccc1)C1OC(C)(C)OC21 (stereo not given)  > 100 µM (inactive)
3             CCOC(=O)CC(=O)C(=O)NN=C1NCCN1  > 100 µM (inactive)
4  C/C=C1/C(=O)O[C@]23C=C[C@@H]4C(C(=O)OC)=CO[C@H](O[C@@H]12)[C@@H]43 [PLUMERICIN]   3.66 µM (inactive)

# input for lookup
Write down the reported GI50 of O=c1[nH]c(=O)n(COCCO)cc1-c1ccccc1 , test system: OVCAR-5.
> 100 µM (inactive)
